Below, each entry is listed with its recorded TGI.
Tested on: MCF7 breast
Experiment: NCI tumour cell line growth inhibition, 48 h

Please review the following examples before continuing.
CC[C@@H](C)[C@H](NC(=O)[C@H](Cc1ccccc1)NCC(F)(F)F)C(=O)OC(C)(C)C; > 100 µM
CC1=C2C(O)C(C(C)C(=O)N(C)C)CCC2(C)C=CC1=O (centres undefined); > 100 µM
O=C(O)CO[C@@]12C#C/C=C\C#C[C@@H]3N(C(=O)Oc4ccccc4)c4ccccc4[C@]14O[C@@]34CCC2; 46.7 µM

Alright, here's another compound for you.
**Query** Returns the measured TGI for the input compound. Input: `CCOP(=Nc1ccc(N(C)C)cc1)(OCC)OCC`
**Result** > 100 µM
